test: Cell viability by MTT assay; assay type: cell-based, Felis catus; conditions: cat (Felis catus), fcwf-4 cells
observationType: CC50 at 72 h

Guide cases for CC50 at 72 h, answers given:
compoundString | CC50 at 72 h
Nc1ccn([C@@H]2CS[C@H](CO)O2)c(=O)n1 | ≥ 27.3 µM
CN(C)CCCN1c2ccccc2Sc2ccccc21 | ≥ 0.1 µM
Cc1cn([C@H]2C=C[C@@H](CO)O2)c(=O)[nH]c1=O | ≥ 55.8 µM
NC(=O)c1ncn([C@@H]2O[C@H](CO)[C@@H](O)[C@H]2O)n1 | ≥ 409 µM
O=c1[nH]c(=O)n([C@H]2C[C@H](O)[C@@H](CO)O2)cc1I | ≥ 141 µM

Provide the reported CC50 at 72 h of each entry below, same order.
1. CC(C)(C)NC(=O)[C@@H]1CN(Cc2cccnc2)CCN1C[C@@H](O)C[C@@H](Cc1ccccc1)C(=O)N[C@H]1c2ccccc2C[C@H]1O
2. Nc1nc2c(ncn2COCCO)c(=O)[nH]1

[A]
1: ≥ 70.2 µM; 2: ≥ 888 µM
